TARGET_OF_ASSAY: HLA-B*07:02
TEST_DETAILS: IEDB peptide-MHC binding, purified MHC/competitive/fluorescence; filed as Kd, often an IC50 or EC50 that approximates it; bounds were set here for any values at or beyond the usual limits of such assays
SETTINGS: source organism: Orthomarburgvirus marburgense
REPORTED_PROPERTY: Kd

(Q) # Kd lookup, item YHLGGIEGL
(A) ≥ 20 µM

* * *

TARGET_OF_ASSAY: HLA-B*35:01
TEST_DETAILS: IEDB peptide-MHC binding, purified MHC/competitive/radioactivity; filed as Kd, often an IC50 or EC50 that approximates it; bounds were set here for any values at or beyond the usual limits of such assays
SETTINGS: source organism: Dengue virus 4 Philippines/H241/1956
REPORTED_PROPERTY: pKd
Please keep in mind that pKd is minus log10 of the molar concentration; only the number is needed.

1. YPKTKLTDWD	5.88

Now for a further sequence.
(Q) Can you look up the measured pKd of IANQAAVLM for me?
(A) 7.12

* * *

TARGET_OF_ASSAY: HLA-B*40:13
TEST_DETAILS: IEDB peptide-MHC binding, purified MHC/competitive/fluorescence; filed as Kd, often an IC50 or EC50 that approximates it; bounds were set here for any values at or beyond the usual limits of such assays
SETTINGS: source organism: Campylobacter jejuni subsp. jejuni NCTC 11168 = ATCC 700819
REPORTED_PROPERTY: Kd (µM)
Numbers only; they are read as µM.

(Q) Recorded Kd for YMKKRYEEF with HLA-B*40:13, please?
(A) 0.326

* * *

TARGET_OF_ASSAY: HLA-B*39:01
TEST_DETAILS: IEDB peptide-MHC binding, purified MHC/direct/fluorescence; filed as Kd, often an IC50 or EC50 that approximates it; bounds were set here for any values at or beyond the usual limits of such assays
SETTINGS: source organism: Yersinia pestis CA88-4125
pKd: −log10 of the molar value.
REPORTED_PROPERTY: pKd

(Q) Enter reported pKd observed with HLA-B*39:01 for LPEAYQWHI
(A) ≤ 4.70

* * *

TARGET_OF_ASSAY: HLA-A*33:01
TEST_DETAILS: IEDB peptide-MHC binding, purified MHC/competitive/radioactivity; filed as Kd, often an IC50 or EC50 that approximates it; bounds were set here for any values at or beyond the usual limits of such assays
SETTINGS: source organism: Dengue virus 3 Martinique/1243/1999
REPORTED_PROPERTY: pKd
Formally, pKd is defined as -log10 of the concentration c, with c in mol/L.

(Q) Please give the measured pKd for this sequence: FFLRKLTSR
(A) 7.33

* * *

TARGET_OF_ASSAY: HLA-B*57:01
TEST_DETAILS: IEDB peptide-MHC binding, purified MHC/competitive/fluorescence; filed as Kd, often an IC50 or EC50 that approximates it; bounds were set here for any values at or beyond the usual limits of such assays
SETTINGS: source organism: Four Corners hantavirus
REPORTED_PROPERTY: Kd

(Q) What reported Kd corresponds to KLKKKSAFY on HLA-B*57:01?
(A) ≥ 20 µM

* * *

TARGET_OF_ASSAY: HLA-B*39:01
TEST_DETAILS: IEDB peptide-MHC binding, purified MHC/competitive/fluorescence; filed as Kd, often an IC50 or EC50 that approximates it; bounds were set here for any values at or beyond the usual limits of such assays
SETTINGS: source organism: Listeria monocytogenes J0161
REPORTED_PROPERTY: Kd

(Q) Which Kd is reported for this sequence? YNAKRIETV
(A) ≥ 20 µM
